- tgt: caspase 3 (Homo sapiens, UniProt P42574)
- Sequence (P42574 29-175 limits assumed): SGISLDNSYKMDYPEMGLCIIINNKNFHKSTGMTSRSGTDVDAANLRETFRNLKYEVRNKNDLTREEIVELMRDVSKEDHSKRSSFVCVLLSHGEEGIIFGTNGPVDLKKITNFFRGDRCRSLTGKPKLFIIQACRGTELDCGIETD
- Sequence (P42574 176-277 limits assumed): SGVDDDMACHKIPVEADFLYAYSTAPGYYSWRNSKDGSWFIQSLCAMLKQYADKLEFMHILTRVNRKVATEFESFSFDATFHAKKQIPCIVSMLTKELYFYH
- measurement-description: Fluorimetric in vitro caspase inhibition assay (7-AMC), caspase 3
- Type: biochemical
- Set-up: purchased Biomol International, UK
- conditions-used: recombinant human caspase 3, 10 μM Ac-DEVD-AMC
reported-property: EC50 (nM)

# count of solved cases: 3
compound | tgt | reported-property | assay-result
O=C1C(=O)N(Cc2ccc(F)cc2)c2ccc(S(=O)(=O)N3CCC[C@H]3COc3ccccc3)cc21 [Compound 15, reference compound] | caspase 3 (Homo sapiens, UniProt P42574) | EC50 | 50.5
O=C1C(=O)N(Cc2cn(CCF)nn2)c2ccc(S(=O)(=O)N3CCC[C@H]3COc3ccccc3)cc21 | caspase 3 (Homo sapiens, UniProt P42574) | EC50 | 16.7
C#CCN1C(=O)C(=O)c2cc(S(=O)(=O)N3CCC[C@H]3COc3ccc(F)cc3F)ccc21 | caspase 3 (Homo sapiens, UniProt P42574) | EC50 | 50.1

I: O=C1C(=O)N(Cc2ccccc2)c2ccc(S(=O)(=O)N3CCC[C@H]3COc3ccccc3)cc21 [Compound 13, reference compound]
II: O=C1C(=O)N(Cc2ccc(F)cc2)c2ccc(S(=O)(=O)N3CCC[C@H]3COC3CCOCC3)cc21
III: O=C1C(=O)N(Cc2ccc(F)cc2)c2ccc(S(=O)(=O)N3CCC[C@H]3COc3cccc(F)c3)cc21
IV: O=C1C(=O)N(Cc2cn(CCF)nn2)c2ccc(S(=O)(=O)N3CCC[C@H]3COc3ccc(F)cc3F)cc21
q: Please give the order of these compounds when sorted by EC50, largest value leading. Please express your ranking as an ordered list of the labels.
a: I, III, II, IV
